Tested on: UACC-62 melanoma
Assay: NCI tumour cell line growth inhibition, 48 h
Documented TGI across a set of molecules

C/C(=N\NS(=O)(=O)c1ccc(C)cc1)c1ccc[n+]([O-])n1 | > 100 µM

Entry under test: Cc1nnc2n1N=C(CC(=O)c1ccc(O)cc1O)CN2N . Its TGI was > 100 µM

Noted for COc1ccccc1Cn1cc2c(c1)-c1oncc1CC2 : its TGI reads > 100 µM

Per the records, this molecule ( CNc1ccc2nc(-c3ccc(OC(=O)N(C)C)cc3)cn2c1 ) has TGI equal to 35.1 µM

Given item O=c1oc2ccccc2cc1-c1nc2ccc([N+](=O)[O-])cc2o1 , the value recorded as its TGI is > 100 µM

For O=C(c1cccs1)N(C(=S)N1CCN(c2ccccc2)CC1)c1ccccc1 the molecule record lists TGI as > 100 µM

TGI in this record for Oc1ccc(-c2c3c(nc4c2CCc2ccc(Br)cc2-4)-c2cc(Br)ccc2CC3)cc1 : 44.2 µM

Entry Cc1nc2c(n1Cc1ccc(Cl)cc1)C(=O)c1ccccc1C2=O — recorded TGI = > 75 µM

Note to self: TGI recorded for CCOC(=O)c1cc(-c2ccc(OC)c(OC)c2)c[nH]1 was > 10 µM

Entry COc1ccc(/C=N/Nc2[nH]c(=S)nc3[nH]ncc23)cc1 , TGI reported as > 100 µM

Sample O=C(OCc1ccccc1CN1CCOCC1)c1ccc(Br)cc1 ; TGI observed: > 100 µM

meta.source: PubChem BioAssay (NCI)
